Values from PubChem BioAssay (NCI)

System: MDA-MB-435
Write down the outcome that applies. Available outcomes: active, inactive

Here are 6 compounds together with their reported answers.
O=C1c2c(O)ccc(O)c2C(=O)c2c(NCCNCCO)ccc(NCCNCCO)c21
active
CN1CCN(CCCOc2ccc3ncnc(Nc4ccc(Oc5cccc(F)c5)c(Cl)c4)c3c2)CC1
inactive
CC(=O)c1c(Nc2ccc(F)c(F)c2F)[nH]c2c(F)cc(F)cc2c1=O
active
CCCCCCCCCCCCCCCCCCNC(=O)[C@H]1CSC(c2ccc(F)c(OC)c2)N1 (some centres not stated)
inactive
C#CCn1cc(C=C2C(=O)NC(=S)NC2=O)c2cc(Cl)ccc21
inactive
CC(C)(C)OC(=O)n1c(Cl)c(C(=O)N=C=S)c2ccccc21
inactive

Please examine the following record next.
Prompt: Hi, do you know how N#Cc1c(-c2ccc(Cl)cc2)csc1NC(=O)Nc1cccc(C(F)(F)F)c1 came out in this test?
Completion: inactive

###

System: KM12 colon
Test: NCI tumour cell line growth inhibition, 48 h; in the data active means GI50 below about 0.43 µM; inactive means the rest
Log the outcome using a class from active, inactive

N#CC1=C(N)Oc2c(sc3c(Br)cccc23)C1c1ccc(F)cc1 (centres undefined)
active
COC12C=C/C(=C(/C(=O)OCc3csc(SC)n3)C(=O)CCCCCCCCC3(OC)C=C/C(=C(/C(=O)OCc4cnc(SC)s4)C(=O)CCCCCCCC1)O3)O2 (centres undefined)
inactive
COc1ccc(C2NC(=S)NC3=C2COc2ccc(F)cc23)cc1OC (centres undefined)
inactive

Prompt: Per the records of this test, what outcome belongs to Cc1nc2cc(Nc3nc(Nc4ccc(F)cc4)nc(-c4ccc(Cl)cc4)n3)ccc2n1Cc1ccccc1 ?
Completion: inactive

###

System: BT-549 breast
Assay: NCI tumour cell line growth inhibition, 48 h
Reported values of TGI for individual entries
Express your answer in µM, writing the number without its unit.

// known answers, use as guide
C/C(=N\O)[C@H]1CC[C@@]2(C)[C@@H]3CC[C@H]4C(C)(C)/C(=N/O)CC[C@@]45CC35CC[C@]12C (stereo partly drawn)
9.59
CCOC(=O)C(=Cc1c(-c2ccccc2)[nH]c2ccccc12)C(=O)OCC
38.5
O=C(Nc1nc2ccc(F)cc2s1)c1cccnc1Nc1ccc(Cl)cc1Cl
17.5

Prompt: Answer with reported TGI of Cc1cc(Nc2cc(N3CCN(C)CC3)nc(C#Cc3ccccc3)n2)n[nH]1
Completion: 17.8

Prompt: Identify the reported TGI for the following entry. Cc1cc2c(-c3nc4ccccn4c3NC34CC5CC(CC(C5)C3)C4)c(O)c(O)cc2c(O)c1-c1c(C)cc2c(-c3nc4ccccn4c3NC34CC5CC(CC(C5)C3)C4)c(O)c(O)cc2c1O
Completion: 5.96

Prompt: Tell me its TGI given CC(C)NC(=O)OCc1c(COC(=O)NC(C)C)n(C)c2c1ccc1cc(Cl)c(Cl)cc12 as the entry.
Completion: 30.7

Prompt: Please indicate TGI recorded for COc1ccccc1-c1nccc(COc2ccccc2C[C@@H](Oc2ncnc3sc(-c4ccc(F)cc4)c(-c4ccc(OCCN5CCN(C)CC5)c(Cl)c4C)c23)C(=O)O)n1
Completion: 2.59

Prompt: Identify the reported TGI for the following entry. CN(C)CCN1C(=O)N(CCN(C)C)c2c3cc(O)ccc3nc3c([N+](=O)[O-])ccc1c23
Completion: 40.6

Prompt: Entry CC[C@H](C)[C@H](NC(=O)N[C@@H](C)c1ccccc1)C(=O)N(C)[C@H](C[C@@H](OC(C)=O)c1nc(C(=O)N[C@@H](Cc2ccccc2)C[C@H](C)C(=O)OC)cs1)C(C)C needs its TGI filled in; supply it.
Completion: 74.9

Prompt: Please indicate TGI recorded for Cc1nc2cc(Nc3nc(Nc4ccc(F)cc4)nc(-c4ccc(Cl)cc4)n3)ccc2n1Cc1ccccc1
Completion: 39.8
